Where these numbers come from: patent US20150086555A1

biological target: recombinant soluble homotrimeric HA of A/common magpie/Hong Kong/5052/07 (H5N1) (Influenza A virus A/common magpie/Hong Kong/5052/2007(H5N1)); experiment: trimeric HA microarray, transfection supernatant set 3; details: remark: other sources report otherwise
OBSERVATION TYPE: Trimeric HA Binding: RLU (RLU)

BINDER | RECORDED MEASUREMENT
TCN-523 (5248_A17) (antibody, V domains shown) VH: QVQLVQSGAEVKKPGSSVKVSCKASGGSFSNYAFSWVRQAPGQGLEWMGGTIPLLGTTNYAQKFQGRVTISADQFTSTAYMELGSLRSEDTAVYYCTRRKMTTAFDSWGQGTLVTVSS VL: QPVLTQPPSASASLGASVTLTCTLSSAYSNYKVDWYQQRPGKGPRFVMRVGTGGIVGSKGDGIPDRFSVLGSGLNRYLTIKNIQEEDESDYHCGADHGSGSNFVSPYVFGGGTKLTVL | 640
TCN-531 (5091_H13) (antibody, V domains shown) VH: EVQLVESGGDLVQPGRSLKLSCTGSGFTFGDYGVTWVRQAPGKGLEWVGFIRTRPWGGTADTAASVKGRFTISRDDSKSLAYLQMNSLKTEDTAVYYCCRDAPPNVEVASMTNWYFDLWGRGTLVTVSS VL: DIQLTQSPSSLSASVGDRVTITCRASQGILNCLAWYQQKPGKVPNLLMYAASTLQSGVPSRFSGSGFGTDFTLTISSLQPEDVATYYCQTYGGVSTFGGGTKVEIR | 37
TCN-530 (5248_H10a) (antibody, V domains shown) VH: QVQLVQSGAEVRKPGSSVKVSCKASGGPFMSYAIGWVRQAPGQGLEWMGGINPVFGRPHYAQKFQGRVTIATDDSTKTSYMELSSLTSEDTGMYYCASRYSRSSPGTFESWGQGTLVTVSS VL: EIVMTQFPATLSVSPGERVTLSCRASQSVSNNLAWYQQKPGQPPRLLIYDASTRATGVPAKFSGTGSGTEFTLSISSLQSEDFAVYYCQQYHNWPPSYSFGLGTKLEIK | 5580
